Reference source for all entries: the supplement of paper PMC4314810

- Tested on: MCF7
- protocol: HRG-induced Akt activation (dPAkt = log2 pAkt/Akt HRG-stimulated minus log2 pAkt/Akt basal) (log2 ratio difference); higher = stronger HRG-induced Akt(T308) phosphorylation
- test_conditions: miRNA mimic concentration 10 nM; time after transfection 72 h; heregulin 10 ng/ml; stimulation time 1 h
quantity_measured: HRG-induced Akt activation (log2)
Form rule: numeric answer, no unit written next to it.

Use these answered entries as a reference point.
| primary_sequence | target_entity | quantity_measured | observed |
| --- | --- | --- | --- |
| UAAGUGCUUCCAUGCUU | MCF7 | HRG-induced Akt activation (log2) | 0.459 |
| AAAGUGCUUCCUUUUUGAGGG | MCF7 | HRG-induced Akt activation (log2) | 0.963 |

Query: Answer with the recorded HRG-induced Akt activation (log2) of "AAGUGUGCAGGGCACUGGU" only.
Reply: 2.33

Query: State, in one line, measured HRG-induced Akt activation (log2) of "UGGAUUUUUGGAUCAGGGA"
Reply: 2.21

* * *

- Test system: MCF7
- protocol: HRG-induced Akt activation (dPAkt = log2 pAkt/Akt HRG-stimulated minus log2 pAkt/Akt basal) (log2 ratio difference); higher = stronger HRG-induced Akt(T308) phosphorylation
- test_conditions: miRNA mimic concentration 10 nM; time after transfection 72 h; heregulin 10 ng/ml; stimulation time 1 h
quantity_measured: HRG-induced Akt activation (log2)
I'd appreciate a reply containing only the number, no unit.

| primary_sequence | target_entity | observed |
| --- | --- | --- |
| UCCCACCGCUGCCACCC | MCF7 | 1.98 |

Query: Fill in reported HRG-induced Akt activation (log2) for this entry: "CGUGCCACCCUUUUCCCCAG"
Reply: 1.18

Query: Please supply the value of reported HRG-induced Akt activation (log2) for the item "GUUUGCACGGGUGGGCCUUGUCU"
Reply: 1.88

Query: Fill in reported HRG-induced Akt activation (log2) for this entry: "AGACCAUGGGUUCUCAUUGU"
Reply: 1.18

Query: Please report HRG-induced Akt activation (log2) for the following sequence: "UGAGUGCCGGUGCCUGCCCUG"
Reply: 1.43

Query: Determine from records and report HRG-induced Akt activation (log2) for "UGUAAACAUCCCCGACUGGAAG"
Reply: 0.646

Query: Tell me HRG-induced Akt activation (log2) reported for "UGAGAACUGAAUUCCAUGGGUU"
Reply: 2.55

Query: Return HRG-induced Akt activation (log2) for the following sequence: "UCCCCCAGGUGUGAUUCUGAUUU"
Reply: 1.14

Query: State its HRG-induced Akt activation (log2): "UGAGGGGCAGAGAGCGAGACUUU"
Reply: 1.83

* * *

- System: MCF7
- protocol: HRG-induced Akt activation (dPAkt = log2 pAkt/Akt HRG-stimulated minus log2 pAkt/Akt basal) (log2 ratio difference); higher = stronger HRG-induced Akt(T308) phosphorylation
- test_conditions: miRNA mimic concentration 10 nM; time after transfection 72 h; heregulin 10 ng/ml; stimulation time 1 h
quantity_measured: HRG-induced Akt activation (log2)
Output spec: single numeric token, no unit.

Here are 2 sequences together with their reported answers.
| primary_sequence | target_entity | HRG-induced Akt activation (log2) |
| --- | --- | --- |
| UUUUGCAAUAUGUUCCUGAAUA | MCF7 | 1.01 |
| AUCUGGAGGUAAGAAGCACUUU | MCF7 | 1.83 |

Query: Note down HRG-induced Akt activation (log2) recorded for "UCAGUAAAUGUUUAUUAGAUGA"
Reply: 1.67

Query: Query HRG-induced Akt activation (log2) for "GGGGGUCCCCGGUGCUCGGAUC"
Reply: 1.7

Query: Determine its reported HRG-induced Akt activation (log2): "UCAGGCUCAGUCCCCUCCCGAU"
Reply: 1.36
